system: ISC-enriched organoids; assay: Primary screen, 384-well 2.5-D organoid differentiation (ENR+CD, 6 days): basal lysozyme secretion (LYZ.NS); format: cell-based, murine; details: Dose 2.00 uM; ENR+CD, 6 days; FC vs plate median
OBSERVED_PROPERTY: Dose.FC.LYZ.NS (log 2 fold change)
One number for each entry, in log 2 fold change.

# COMPOUND, Dose.FC.LYZ.NS / log 2 fold change
records = [
    ("OC[C@H]1O[C@@H](c2ccc(Cl)c(Cc3ccc(O[C@H]4CCOC4)cc3)c2)[C@H](O)[C@@H](O)[C@@H]1O", "−0.009"),
]

Batch request: Dose.FC.LYZ.NS per item, same order as input.
1. COc1ccc(C[C@@H](C)NC[C@H](O)c2ccc(O)c(NC=O)c2)cc1.COc1ccc(C[C@@H](C)NC[C@H](O)c2ccc(O)c(NC=O)c2)cc1.O=C(O)/C=C/C(=O)O [Formoterol Hemifumarate]
2. O=C(Nc1cccc(Nc2ncc(Br)c(NCCc3cnc[nH]3)n2)c1)N1CCCC1
3. C[C@]12C=CC(=O)N[C@@H]1CC[C@@H]1[C@@H]2CC[C@]2(C)[C@@H](C(=O)Nc3cc(C(F)(F)F)ccc3C(F)(F)F)CC[C@@H]12 [Dutasteride]

[0.048, "−0.089", "−0.105"]

* * *

test system: ISC-enriched organoids; assay: Primary screen, 384-well 2.5-D organoid differentiation (ENR+CD, 6 days): basal lysozyme secretion (LYZ.NS); type: cell-based, murine; conditions: primary screen, dose 0.08 uM, standard z score of FC
OBSERVED_PROPERTY: Z.LYZ.NS
Give bare numbers.

# MOLECULE, Z.LYZ.NS
rows = [
    ("O=C(c1ccc(F)cc1)N1CCC[C@H](c2nc(-c3ccc(F)cc3)no2)C1 [ADX-47273]", 2.346),
    ("Cc1cc2c(C(C)C)c(O)c(O)c(C=O)c2c(O)c1-c1c(C)cc2c(C(C)C)c(O)c(O)c(C=O)c2c1O [AT101]", "−0.426"),
    ("C[C@H](Oc1cc(-c2cnn(C3CCNCC3)c2)cnc1N)c1c(Cl)ccc(F)c1Cl [(S)-crizotinib]", 1.679),
]

Continue with the next molecule.
Return Z.LYZ.NS (reported value) for this molecule: CC(C)N(CC[C@H](c1ccccc1)c1cc(CO)ccc1O)C(C)C [4CE°8C]
0.601

* * *

test system: ISC-enriched organoids; test: Primary screen, 384-well 2.5-D organoid differentiation (ENR+CD, 6 days): basal lysozyme secretion (LYZ.NS); assay type: cell-based, murine; settings: Dose 0.08 uM; primary screen, standard z score
Assign class by Z.LYZ.NS: not lower than 0.7 means true; lower than 0.7 means false.

Solved cases (2 shown):
# MOLECULE, EXPERIMENTAL_SYSTEM, LABEL
records = [
    ("Cc1cc(Nc2cc(CN3CCOCC3)c3nc(C)c(Cc4ccc(Cl)cc4F)n3n2)n[nH]1", "ISC-enriched organoids", "true"),
    ("O=C(/C=C\\n1cnc(-c2cc(C(F)(F)F)cc(C(F)(F)F)c2)n1)N1CC(F)(F)C1", "ISC-enriched organoids", "false"),
]

hey, is Z.LYZ.NS for this one >= 0.7? Cc1c(C(=O)Nc2ccc(N3C[C@@H](C)O[C@@H](C)C3)nc2)cccc1-c1ccc(OC(F)(F)F)cc1
true

hey, is Z.LYZ.NS for this one >= 0.7? CCCCc1nc(Cl)c(CO)n1Cc1ccc(-c2ccccc2-c2nnn[n-]2)cc1.[K+]
false

hey, is Z.LYZ.NS for this one >= 0.7? CC(C)CCNC(=O)[C@H](CC(C)C)NC(=O)[C@H]1O[C@@H]1C(=O)O [Loxistatin Acid (E-64C)]
true

* * *

system: ISC-enriched organoids; assay: Primary screen, 384-well 2.5-D organoid differentiation (ENR+CD, 6 days, Target Selective Inhibitor Library, vs whole-plate median): ATP (CellTiter-Glo 3D, CTG); details: Dose 0.40 uM; standard z score of FC
Assign class by Z.CTG: not lower than 0.5 means 1; lower than 0.5 means -1.

# COMPOUND, LABEL
data = [
    ("O=[N+]([O-])C=Cc1ccc2c(c1)OCO2", -1),
    ("Nc1cccc2c1C(=O)N(C1CCC(=O)NC1=O)C2=O (stereo not drawn) [Pomalidomide]", 1),
    ("CN(C)C(=O)[C@H](O)[C@H](Cc1ccccc1)NC(=O)c1cc2cc(Cl)ccc2[nH]1", -1),
    ("COc1ccc2nc([S@@+]([O-])Cc3ncc(C)c(OC)c3C)[nH]c2c1 [Esomeprazole Sodium]", -1),
    ("OC[C@H]1O[C@@H](c2ccc(Cl)c(Cc3ccc(O[C@H]4CCOC4)cc3)c2)[C@H](O)[C@@H](O)[C@@H]1O", -1),
]

hey, is Z.CTG for this one >= 0.5? Cc1nc(C(=O)NCC(=O)O)c(O)c2ccc(Oc3ccccc3)cc12
1

hey, is Z.CTG for this one >= 0.5? C=CC(=O)Nc1cccc(Nc2nc(Nc3ccc(Oc4ccnc(C(=O)NC)c4)cc3)ncc2F)c1
-1

hey, is Z.CTG for this one >= 0.5? CCc1cncnc1N1CCN(Cc2nc3ccc(C(F)(F)F)cc3[nH]2)CC1
1

* * *

test system: ISC-enriched organoids; test: Primary screen, 384-well 2.5-D organoid differentiation (ENR+CD, 6 days, Target Selective Inhibitor Library, vs whole-plate median): ATP (CellTiter-Glo 3D, CTG); details: strictly standardized mean difference; primary screen; 2nd of the 4 dose lines of the treatment (dose not given)
OBSERVED_PROPERTY: SSMD.CTG

# COMPOUND, OBSERVED_PROPERTY, MEASURED_RESULT
data = [
    ("CCCCc1nc(Cl)c(CO)n1Cc1ccc(-c2ccccc2-c2nnn[n-]2)cc1.[K+]", "SSMD.CTG", "−0.304"),
    ("C[C@](O)(COc1ccc(C#N)cc1)C(=O)Nc1ccc(C#N)c(C(F)(F)F)c1", "SSMD.CTG", "−0.285"),
    ("Cc1noc(-c2ccc(CSCCC(=O)O)cc2)c1NC(=O)OC(C)c1ccccc1Cl (stereo not shown)", "SSMD.CTG", "−0.008"),
]

Continue with the next compound.
Return SSMD.CTG (reported value) for this compound: COc1cc(-n2c(=S)[nH]c3ccccc3c2=O)c(Cl)cc1Cl
−0.072

* * *

test system: ISC-enriched organoids; assay: Primary screen, 384-well 2.5-D organoid differentiation (ENR+CD, 6 days, Target Selective Inhibitor Library, vs whole-plate median): ATP (CellTiter-Glo 3D, CTG); conditions: Dose 0.08 uM; standard z score of FC
OBSERVED_PROPERTY: Z.CTG
One number for each entry.

Known Z.CTG results, listed for orientation:
# COMPOUND, Z.CTG
rows = [
    ("COc1cccc(C=NCCN=Cc2cccc(OC)c2[O-])c1[O-].[Cl-].[Mn+3] [EUK 134]", "−0.035"),
    ("NC1(Cc2ccc(Cl)cc2)CCN(c2ncnc3[nH]ccc23)CC1 [CCT128930, reference compound]", 0.228),
    ("CC(C)CC(=O)Nc1[nH]nc2c1CN(C(=O)C1CCN(C)CC1)C2(C)C [PHA-793887]", 0.271),
    ("CCc1cccc2c3c([nH]c12)C(CC)(CC(=O)O)OCC3 (stereo not shown) [Etodolac]", "−0.147"),
    ("CC(C)(Cc1ccc2ccccc2c1)NC[C@@H](O)COc1cccc(Cl)c1C#N [NPS-2143]", 0.356),
    ("COc1ccc(-c2nc3ccc(C4=NNC(=O)CC4C)cc3[nH]2)cc1 (stereo not shown) [Pimobendan]", "−0.053"),
]

Continue with the next compound.
Name the value of Z.CTG reported for COc1ccc2cc([C@H](C)C(=O)O)ccc2c1 [Naproxen] when tested on ISC-enriched organoids.
−0.233

* * *

test system: ISC-enriched organoids; experiment: Primary screen, 384-well 2.5-D organoid differentiation (ENR+CD, 6 days, Target Selective Inhibitor Library, vs whole-plate median): ATP (CellTiter-Glo 3D, CTG); details: Dose 0.40 uM; standard z score of FC
Counter-ions that a name gives are not always drawn.
OBSERVED_PROPERTY: Z.CTG
Numbers only.

Batch request: Z.CTG per item, same order as input.
1. COc1ccccc1OCCNCC(O)COc1cccc2[nH]c3ccccc3c12 (stereo not drawn)
2. O=C(NCCN1CCOCC1)c1ccc(Cl)cc1 [Moclobemide (Ro 111163)]

["−0.034", 0.252]

Return Z.CTG (reported value) for this molecule: CCNC(=O)[C@H]1O[C@@H](n2cnc3c(N)nc(NCCc4ccc(CCC(=O)O)cc4)nc32)[C@H](O)[C@@H]1O [CGS 21680 HCl]
1.049

* * *

Test system: ISC-enriched organoids
Assay: Primary screen, 384-well 2.5-D organoid differentiation (ENR+CD, 6 days): basal lysozyme secretion (LYZ.NS)
Type: cell-based, murine
Settings: primary screen, dose 2.00 uM, standard z score of FC
Description: High-throughput screening.
What Z.LYZ.NS was measured for each of the following?
One number for each entry.

Known Z.LYZ.NS results, listed for orientation:
# COMPOUND, OBSERVED_PROPERTY, MEASURED_RESULT
measured = [
    ("O=C(/C=C/c1cccc(S(=O)(=O)Nc2ccccc2)c1)NO", "Z.LYZ.NS", "−1.510"),
    ("COc1cc2c(cc1O)CC[C@@H]1[C@@H]2CC[C@]2(C)[C@@H](O)CC[C@@H]12", "Z.LYZ.NS", 0.041),
    ("COc1cc(F)c(C(C)C)cc1-c1ccc(C(F)(F)F)cc1CN1C(=O)O[C@H](c2cc(C(F)(F)F)cc(C(F)(F)F)c2)[C@@H]1C", "Z.LYZ.NS", "−0.129"),
    ("C[C@@H]1COCCN1c1cc(C2(S(C)(=O)=O)CC2)nc(-c2cccc3[nH]ccc23)n1", "Z.LYZ.NS", "−1.868"),
    ("CN1CCc2cc3c(cc2[C@H]1[C@@H]1OC(=O)c2c1ccc1c2OCO1)OCO3 [(+)-Bicuculline]", "Z.LYZ.NS", 0.270),
    ("N#Cc1c(O)c2c(-c3ccc(-c4ccccc4O)cc3)csc2[nH]c1=O", "Z.LYZ.NS", 0.473),
    ("NC(=O)Nc1cc(-c2cccc(F)c2)sc1C(=O)N[C@H]1CCCNC1", "Z.LYZ.NS", "−1.835"),
    ("CC(C)CCN1c2nc(Nc3cc(F)c(O)c(F)c3)ncc2N(C)C(=O)C1C (stereo not shown)", "Z.LYZ.NS", "−0.574"),
    ("CC(C)c1c(C(=O)Nc2ccccc2)c(-c2ccccc2)c(-c2ccc(F)cc2)n1CC[C@@H](O)C[C@@H](O)CC(=O)[O-].CC(C)c1c(C(=O)Nc2ccccc2)c(-c2ccccc2)c(-c2ccc(F)cc2)n1CC[C@@H](O)C[C@@H](O)CC(=O)[O-].[Ca+2]", "Z.LYZ.NS", "−2.148"),
]

Return Z.LYZ.NS (reported value) for this compound: C/C(=C\C(=O)Nc1ccccc1C(=O)O)c1ccc2ccccc2c1
−0.117
